Data credit: the Immune Epitope Database (IEDB)

target: HLA-B*08:01; test: IEDB peptide-MHC binding, purified MHC/direct/fluorescence; filed as Kd, often an IC50 or EC50 that approximates it; bounds were set here for any values at or beyond the usual limits of such assays; settings: source organism: Mammarenavirus lassaense
Measurement Type: Kd (µM)
Use µM as the unit, but write only the number.

Q: Given `VPHVIEEVM` , respond with its Kd.
Ans: 3.8

* * *

molecular target: HLA-A*02:01; test: IEDB peptide-MHC binding, purified MHC/direct/fluorescence; filed as Kd, often an IC50 or EC50 that approximates it; bounds were set here for any values at or beyond the usual limits of such assays; conditions: source organism: Bacillus cytotoxicus
Measurement Type: pKd
Scale for pKd: -log10 of concentration given in mol/L; no unit attached.

Q: Report pKd from HLA-A*02:01 testing of `ALSGFYYVQ`
Ans: 5.85

* * *

molecular target: HLA-B*53:01; assay: IEDB peptide-MHC binding, purified MHC/competitive/radioactivity; filed as Kd, often an IC50 or EC50 that approximates it; bounds were set here for any values at or beyond the usual limits of such assays; conditions: source organism: Mammarenavirus choriomeningitidis
Measurement Type: Kd
Report as: number unit

Q: Given `FATCGLFAL` , respond with its Kd.
Ans: 8.69 µM

* * *

target: HLA-C*07:02; assay: IEDB peptide-MHC binding, purified MHC/direct/fluorescence; filed as Kd, often an IC50 or EC50 that approximates it; bounds were set here for any values at or beyond the usual limits of such assays; conditions: source organism: Mycobacterium tuberculosis variant bovis BCG str. Pasteur 1173P2
Measurement Type: pKd
Scale for pKd: -log10 of concentration given in mol/L; no unit attached.

Q: Given `FLLDGGAPF` , respond with its pKd.
Ans: 6.28

* * *

target: HLA-B*18:01; assay: IEDB peptide-MHC binding, purified MHC/direct/fluorescence; filed as Kd, often an IC50 or EC50 that approximates it; bounds were set here for any values at or beyond the usual limits of such assays; conditions: source organism: Yellow fever virus
pKd: −log10 of the molar value.
Measurement Type: pKd

Q: Given `VNRWLFRHL` , respond with its pKd.
Ans: ≤ 4.70

* * *

target: HLA-B*40:13; test: IEDB peptide-MHC binding, purified MHC/competitive/fluorescence; filed as Kd, often an IC50 or EC50 that approximates it; bounds were set here for any values at or beyond the usual limits of such assays; conditions: source organism: Salmonella enterica subsp. arizonae serovar 62:z4,z23:-
Measurement Type: Kd (µM)
Use µM as the unit, but write only the number.

Q: Report Kd from HLA-B*40:13 testing of `YTIYGAWMF`
Ans: 0.397

* * *

biological target: HLA-A*69:01; assay: IEDB peptide-MHC binding, purified MHC/competitive/fluorescence; filed as Kd, often an IC50 or EC50 that approximates it; bounds were set here for any values at or beyond the usual limits of such assays; conditions: source organism: Variola virus
pKd: −log10 of the molar value.
Measurement Type: pKd

Q: Given `ETIEILRNY` , respond with its pKd.
Ans: ≤ 4.70

* * *

biological target: HLA-A*02:01; test: IEDB peptide-MHC binding, cellular MHC/competitive/fluorescence; bounds were set here for any values at or beyond the usual limits of such assays; conditions: source organism: Homo sapiens
Measurement Type: pIC50
Scale for pIC50: -log10 of concentration given in mol/L; no unit attached.

Query Sequence: LLDRFLATV
Endpoint Value: 6.25

Please turn your attention to the following entry.
Q: Given `ALLDKLYAL` , respond with its pIC50.
Ans: 5.93

* * *

target: HLA-A*68:02; assay: IEDB peptide-MHC binding, purified MHC/direct/fluorescence; filed as Kd, often an IC50 or EC50 that approximates it; bounds were set here for any values at or beyond the usual limits of such assays; conditions: source organism: Camelpox virus M-96
pKd: −log10 of the molar value.
Measurement Type: pKd

Q: Given `IFLIITKVF` , respond with its pKd.
Ans: ≤ 4.70

* * *

molecular target: HLA-B*18:01; assay: IEDB peptide-MHC binding, purified MHC/competitive/radioactivity; filed as Kd, often an IC50 or EC50 that approximates it; bounds were set here for any values at or beyond the usual limits of such assays; details: source organism: Mammarenavirus guanaritoense
Measurement Type: pKd
Scale for pKd: -log10 of concentration given in mol/L; no unit attached.

Q: Given `AEFTFQLNL` , respond with its pKd.
Ans: 5.23

* * *

molecular target: HLA-A*32:07; experiment: IEDB peptide-MHC binding, purified MHC/competitive/fluorescence; filed as Kd, often an IC50 or EC50 that approximates it; bounds were set here for any values at or beyond the usual limits of such assays; conditions: source organism: Cryptosporidium parvum Iowa II
Measurement Type: Kd (nM)
Use nM as the unit, but write only the number.

Q: Given `MQFPGSVGF` , respond with its Kd.
Ans: 1.2

* * *

target: HLA-B*46:01; experiment: IEDB peptide-MHC binding, purified MHC/competitive/fluorescence; filed as Kd, often an IC50 or EC50 that approximates it; bounds were set here for any values at or beyond the usual limits of such assays; settings: source organism: Orthohantavirus andesense
Measurement Type: Kd

Q: Given `RMMATKDSF` , respond with its Kd.
Ans: ≥ 20 µM

* * *

target: HLA-A*03:01; assay: IEDB peptide-MHC binding, purified MHC/competitive/fluorescence; filed as Kd, often an IC50 or EC50 that approximates it; bounds were set here for any values at or beyond the usual limits of such assays; conditions: source organism: Vibrio vulnificus CMCP6
pKd: −log10 of the molar value.
Measurement Type: pKd

Q: Report pKd from HLA-A*03:01 testing of `FGAQMGWPV`
Ans: ≤ 4.70

* * *

molecular target: HLA-A*11:01; experiment: IEDB peptide-MHC binding, purified MHC/direct/fluorescence; filed as Kd, often an IC50 or EC50 that approximates it; bounds were set here for any values at or beyond the usual limits of such assays; settings: source organism: Giardia lamblia ATCC 50803
pKd: −log10 of the molar value.
A collection of sequences and their measured pKd

Observe how each entry below is paired with its result.
Query Sequence: KLADMSIYC
Target Desc: HLA-A*11:01
Endpoint Value: ≤ 4.70

Query Sequence: CYPRLWGVR
Target Desc: HLA-A*11:01
Endpoint Value: ≤ 5.00

Query Sequence: HCIDKTPGL
Target Desc: HLA-A*11:01
Endpoint Value: ≤ 4.70

Query Sequence: EFDNYRGTI
Target Desc: HLA-A*11:01
Endpoint Value: ≤ 4.70

Please turn your attention to the following entry.
Q: Given `QPWTPVSSF` , respond with its pKd.
Ans: ≤ 4.70

* * *

target: HLA-B*15:01; experiment: IEDB peptide-MHC binding, purified MHC/competitive/fluorescence; bounds were set here for any values at or beyond the usual limits of such assays; conditions: source organism: Variola virus
Measurement Type: IC50 (µM)
Use µM as the unit, but write only the number.

Q: Given `YLFGGFSTL` , respond with its IC50.
Ans: 3.33

* * *

molecular target: HLA-B*40:01; assay: IEDB peptide-MHC binding, purified MHC/competitive/radioactivity; filed as Kd, often an IC50 or EC50 that approximates it; bounds were set here for any values at or beyond the usual limits of such assays; settings: source organism: SARS coronavirus Tor2
A collection of sequences and their measured Kd
Use µM as the unit, but write only the number.

Observe how each entry below is paired with its result.
Query Sequence: DEWSVATFYL
Endpoint Value: 1.49

Query Sequence: PEANMDQESF
Endpoint Value: 4.2

Q: Given `IEYSDFATSA` , respond with its Kd.
Ans: 16.7

* * *

A collection of sequences and their measured Kd
target: HLA-A*32:01; assay: IEDB peptide-MHC binding, purified MHC/competitive/radioactivity; filed as Kd, often an IC50 or EC50 that approximates it; bounds were set here for any values at or beyond the usual limits of such assays; settings: source organism: Vaccinia virus WR
Use nM as the unit, but write only the number.

Observe how each entry below is paired with its result.
Query Sequence: KMTRVFNKF
Target Desc: HLA-A*32:01
Endpoint Value: 10600
//
Query Sequence: ITYWSRFTI
Target Desc: HLA-A*32:01
Endpoint Value: 2.48
//
Query Sequence: LLNNYTLKI
Target Desc: HLA-A*32:01
Endpoint Value: 25.4
//
Query Sequence: LLSRFFNMI
Target Desc: HLA-A*32:01
Endpoint Value: 714
//
Query Sequence: HLSNYIVSI
Target Desc: HLA-A*32:01
Endpoint Value: 0.986

Q: Given `VLYNNVVEF` , respond with its Kd.
Ans: 1.45

Q: Given `KTSGYISSF` , respond with its Kd.
Ans: 0.502

Q: Given `TMLSIILVI` , respond with its Kd.
Ans: 15.6

* * *

biological target: HLA-A*02:01; experiment: IEDB peptide-MHC binding, purified MHC/direct/fluorescence; filed as Kd, often an IC50 or EC50 that approximates it; bounds were set here for any values at or beyond the usual limits of such assays; settings: source organism: Influenza A virus (A/Wisconsin/4755/1994(H1N1))
Measurement Type: Kd

Q: Given `ITKEKKEEL` , respond with its Kd.
Ans: ≥ 20 µM
